# Species: Rattus norvegicus
# procedure_text: Open TG-GATES - Regimen: Single
# Assay type: toxicity, organism-based, Sprague-Dawley
# Parameters: regimen Single, gender Male, age 6 weeks
# assay_setup: in vivo, po, 1000 mg/kg, 9 h, tissue Plasma, route gavage, dose level High
quantity: TG (mg/dL)
Reply with just the number (in mg/dL).

[[record]]
compound = "O=C(OC[C@H]1O[C@@H](OC(=O)c2cc(O)c(O)c(OC(=O)c3cc(O)c(O)c(O)c3)c2)[C@H](OC(=O)c2cc(O)c(O)c(OC(=O)c3cc(O)c(O)c(O)c3)c2)[C@@H](OC(=O)c2cc(O)c(O)c(OC(=O)c3cc(O)c(O)c(O)c3)c2)[C@@H]1OC(=O)c1cc(O)c(O)c(OC(=O)c2cc(O)c(O)c(O)c2)c1)c1cc(O)c(O)c(OC(=O)c2cc(O)c(O)c(O)c2)c1 [TANNIC ACID]"
quantity = "TG"
numeric_readout = 16

[[record]]
compound = "CNC(=C[N+](=O)[O-])NCCSCc1ccc(CN(C)C)o1 [RANITIDINE]"
quantity = "TG"
numeric_readout = 30.2

[[record]]
compound = "Cc1nnc2n1-c1ccc(Cl)cc1C(c1ccccc1Cl)=NC2 [TRIAZOLAM]"
quantity = "TG"
numeric_readout = 56.4

[[record]]
compound = "COC(=O)C1=C(C)NC(C)=C(C(=O)OC)C1c1ccccc1[N+](=O)[O-] [NIFEDIPINE]"
quantity = "TG"
numeric_readout = 22.2


Switching to the query record.
Entry CN/C(=N/CCSCc1nc[nH]c1C)NC#N [CIMETIDINE] , TG reported as 58.6

###

# Organism: Rattus norvegicus
# procedure_text: Open TG-GATES - Regimen: Daily Repeat
# Assay type: toxicity, organism-based, Sprague-Dawley
# Set-up: regimen Daily Repeat, gender Male, age 6 weeks
# assay_setup: in vivo, po, 300 mg/kg, […], tissue Blood, route gavage, dose level Middle, time 14 day
quantity: PT (s)
Reply with just the number (in s).

[[record]]
molecule_smiles = "CNC(=C[N+](=O)[O-])NCCSCc1ccc(CN(C)C)o1"
numeric_readout = 12.1


Entry "COC(=O)C1=C(C)NC(C)=C(C(=O)OC)C1c1ccccc1[N+](=O)[O-]" , PT reported as 14

Entry "CN/C(=N/CCSCc1nc[nH]c1C)NC#N" , PT reported as 12.7

Entry "O=C(OC[C@H]1O[C@@H](OC(=O)c2cc(O)c(O)c(OC(=O)c3cc(O)c(O)c(O)c3)c2)[C@H](OC(=O)c2cc(O)c(O)c(OC(=O)c3cc(O)c(O)c(O)c3)c2)[C@@H](OC(=O)c2cc(O)c(O)c(OC(=O)c3cc(O)c(O)c(O)c3)c2)[C@@H]1OC(=O)c1cc(O)c(O)c(OC(=O)c2cc(O)c(O)c(O)c2)c1)c1cc(O)c(O)c(OC(=O)c2cc(O)c(O)c(O)c2)c1" , PT reported as 11.5

Entry "CCOc1ccc(NC(C)=O)cc1" , PT reported as 13.1

Entry "Cc1nnc2n1-c1ccc(Cl)cc1C(c1ccccc1Cl)=NC2" , PT reported as 13.5

###

Listing of recorded Lym by entry.
# Species on record: Rattus norvegicus
# procedure_text: Open TG-GATES - Regimen: Single
# Assay type: toxicity, organism-based, Sprague-Dawley
# Set-up: regimen Single, gender Male, age 6 weeks
# assay_setup: in vivo, po, 0 mg/kg, 3 h, tissue Blood, route gavage, dose level Control
Reply with just the number (in %).

[[record]]
molecule = "CS(=O)(=O)O.Cc1ccc(NC(=O)c2ccc(CN3CCN(C)CC3)cc2)cc1Nc1nccc(-c2cccnc2)n1 [IMATINIB MESYLATE]"
quantity = "Lym"
output_unit = "%"
numeric_readout = 77.4

[[record]]
molecule = "CCOc1ccc(NC(C)=O)cc1"
quantity = "Lym"
output_unit = "%"
numeric_readout = 78.2

[[record]]
molecule = "NC1=NC(=O)C(c2ccccc2)O1 (stereo not given)"
quantity = "Lym"
output_unit = "%"
numeric_readout = 78.2

[[record]]
molecule = "COC(=O)C1=C(C)NC(C)=C(C(=O)OC)C1c1ccccc1[N+](=O)[O-]"
quantity = "Lym"
output_unit = "%"
numeric_readout = 74.2


Switching to the query record.
Entry CN1C(=O)CCS(=O)(=O)C1c1ccc(Cl)cc1 (stereo not given) , Lym reported as 80.4
